Molecular target: BLNK (Homo sapiens, UniProt Q8WV28)
Construct: the DNA-tagged SH2 domain concentrations used in this study were <0.1 nM; made in house; host or cells: HEK293 (transient transfection; unpurified extract)
Sequence (Q8WV28 346-453 limits assumed): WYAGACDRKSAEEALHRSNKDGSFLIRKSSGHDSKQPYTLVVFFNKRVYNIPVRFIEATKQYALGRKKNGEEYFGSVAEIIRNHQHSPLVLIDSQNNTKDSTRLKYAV
Assay: biochemical
Format: binding
Details: read-out: percent of DMSO vehicle control
Non-standard residues stand in square brackets, D forms with d. Residues, ends and D or L forms follow the SMILES beside them. *: point of attachment. pY = N[C@@H](Cc1ccc(OP(=O)(O)O)cc1)C(=O)O; Caffeoyl = O=C(/C=C/c1ccc(O)c(O)c1)*
remaining activity at 10 µM reference
Quantity: remaining activity at 10 µM (%)

{"Compound": "CC(=O)N1CC[C@H]2CC[C@@H](C(=O)N[C@@H](CCC(N)=O)C(=O)NC(c3ccccc3)c3ccccc3)N2C(=O)[C@@H](NC(=O)c2cc3cc(C(F)(F)P(=O)(O)O)ccc3[nH]2)C1", "Experimental System": "BLNK (Homo sapiens, UniProt Q8WV28)", "Display Unit": "%", "Quantitative Result": 117}
{"Compound": "CC(=O)N[C@@H](Cc1ccc(CP(=O)(O)O)cc1)C(=O)NC1(C(=O)N[C@@H](CC(N)=O)C(=O)NCCCc2c(O)ccc3ccccc23)CCCCC1", "Experimental System": "BLNK (Homo sapiens, UniProt Q8WV28)", "Display Unit": "%", "Quantitative Result": 117}
{"Compound": "CC[C@H](C)[C@H](NC(=O)[C@H](CCC(=O)O)NC(=O)[C@H](CCC(=O)O)NC(=O)[C@H](Cc1ccc(OP(=O)(O)O)cc1)NC(=O)/C=C/c1ccc(O)c(O)c1)C(=O)N[C@@H](CCC(=O)O)C(=O)O [Caffeic acid-pYEEIE] (Caffeoyl-[pY]EEIE-OH)", "Experimental System": "BLNK (Homo sapiens, UniProt Q8WV28)", "Display Unit": "%", "Quantitative Result": 3.2}
{"Compound": "NC(=O)CC[C@H](NC(=O)[C@@H]1CC[C@@H]2CCN(C(=O)CCCCCC#Cc3cccc4c3CN(C3CCC(=O)NC3=O)C4=O)C[C@H](NC(=O)c3cc4cc(C(F)(F)P(=O)(O)O)ccc4[nH]3)C(=O)N21)C(=O)NC(c1ccccc1)c1ccccc1 (stereo partly shown)", "Experimental System": "BLNK (Homo sapiens, UniProt Q8WV28)", "Display Unit": "%", "Quantitative Result": 104}

The reported numbers originate from paper PMC12951562.
